system: SN12C renal; experiment: NCI tumour cell line growth inhibition, 384-well format
Value Type: TGI (µM)

[[record]]
compound = "CC(C)(C)Cn1c(N)nc2ccc(-c3[nH]c(C(C)(C)C)nc3-c3ccc(F)cc3)nc21"
censor_symbol = "="
readout_number = 14.7

[[record]]
compound = "COc1nccc(-c2c(-c3ccc(F)cc3)ncn2C2CCC(O)CC2)n1 (centres undefined)"
censor_symbol = ">"
readout_number = 100

[[record]]
compound = "Nc1nc(-n2cccn2)nc(-n2cccn2)c1Br"
censor_symbol = ">"
readout_number = 100

[[record]]
compound = "Cc1ccc(NC(=O)c2ccnc(C(F)(F)F)c2)cc1-c1cc(OCCO)nc(N2CCOCC2)c1"
censor_symbol = "="
readout_number = 10.4

